B1: peptide HD2 (from tick evasin EVA4) / CXCL14 (biotinylated, synthetic) (parent)
chain 1: EEDDYTAYAPLTCYFT
chain 2: SKCKCSRKGPKIRYSDVKKLEMKPKYPHCEEKMVIITTKSVSRYRGQEHCLHPKLQSTKRFIKWYNAWNEKRRVYEE

variants of: B1; settings: with CXCL14 (biotinylated, synthetic); scale: log2
Parameter class (string): assigned from measured enrichment. Ranges: low class (below -6), middle class (-6 to below -5), high class (-5 or more)

The following variants have reported results that may help.
chain 1 D3K	high class
chain 1 A9R	low class
chain 1 E2K	high class
chain 1 E2A	middle class
chain 1 Y14S	low class

Let's switch to this variant now.
Ask: Form: Item = chain 1 P10I ; Class = ?
Reply: low class
